System: P12-Ichikawa
Assay: AUC of viability dose-response curve (% viability x log10 dose units); higher = less sensitive
Settings: RPMI 5 mM glucose + 10% dialyzed FBS; 48 h
# reported AUC of viability dose-response curve; entries follow

[
  {
    "MOLECULE": "O=C1NC(=O)/C(=C\\c2ccc(-c3ccc(F)cc3)o2)S1",
    "RESULT_VALUE": 455
  },
  {
    "MOLECULE": "CCc1ccc(CCOc2ccc(CC3SC(=O)NC3=O)cc2)nc1 (centres undefined)",
    "RESULT_VALUE": 469
  },
  {
    "MOLECULE": "O=C(Nc1cc(Cl)cc2c1[nH]c1cnccc12)c1cccnc1",
    "RESULT_VALUE": 457
  }
]

IN: Given the molecule "CC(C)N[C@@H]1CCn2c(=O)[nH]c3cccc(c32)[C@H]1O" , write its reported AUC of viability dose-response curve.
OUT: 457

Every entry's value here was drawn from the supplement of paper PMC11451515.
